The reported measurements were obtained from PubChem BioAssay (NCI).

Could you please report measured TGI for the items listed next?
tested on: NCI-H226 lung; experiment: NCI tumour cell line growth inhibition, 48 h

NCI-H226 lung assay, compound CCCCNc1nc(NC2OCC(OC(C)=O)C(OC(C)=O)C2OC(C)=O)c(N=O)c(=O)n1C (centres undefined) , recorded TGI = > 10 µM

The compound CC(CO)(Nc1ccc([N+](=O)[O-])cc1[N+](=O)[O-])C(=O)O (centres undefined) on NCI-H226 lung: TGI was > 100 µM

Summary line: Nc1n[nH]c2ccc([C@@H]3Nc4cc5c(cc4[C@H]4C6CCC(C6)[C@@H]34)C(=O)NC5)cc12 (some centres undefined) , NCI-H226 lung, reported TGI = > 20.9 µM

Recorded TGI for `Nc1ncnc2c1ncn2[C@@H]1O[C@H](COC(c2ccccc2)(c2ccccc2)c2ccccc2)[C@@H](OC(=S)Oc2ccccc2)[C@@H]1F` on NCI-H226 lung was 31.8 µM

I looked up `COc1cc(/C=C/c2ccc3c(Br)cc(Br)c(O)c3n2)ccc1O` and its TGI for NCI-H226 lung was 17.4 µM

Tested on NCI-H226 lung: `CCc1c(C)nc2sc3c(N)ncnc3c2c1C` . Observed TGI: > 25 µM

Test item C=CCOc1ccc(C2C(C(=O)OC)C(=O)CC(O)(c3ccccc3)C2C(=O)OC)cc1OC (centres undefined) ; NCI-H226 lung; reported TGI was 60.3 µM

Kindly note: NCI-H226 lung, `CC(=O)/C(=C\c1ccccc1O)C(=O)Nc1ccccc1C` , TGI value reported: 62.4 µM

// compound N/C(=N\OC(=O)c1ccccc1)C(Cc1ccccc1)C(=O)NOC(=O)c1ccccc1 (centres undefined) , assay NCI-H226 lung, TGI value: 14 µM
